# clearance listing for each entry below
Protocol: PK (pharmacokinetic) study in rat, cassette dosing
Format: in vivo
Condition Set: male, Wistar, plasma, IV cassette 1 mg/kg
Assay Endpoint: clearance

{"columns": ["Molecule", "Assay Endpoint", "Reported Measurement"],
 "data": [
  ["[2H]C([2H])([2H])C([2H])([2H])N1CCC(n2cc(-c3cnc(N)c(O[C@H](C)c4c(Cl)ccc(F)c4Cl)c3)cn2)CC1 [Compound 22]", "clearance", "49.5 mL/min/kg"],
  ["CCN1CCC(n2cc(-c3cnc(N)c(O[C@H](C)c4c(Cl)ccc(F)c4Cl)c3)cn2)CC1 [Compound 21]", "clearance", "37.7 mL/min/kg"]
]}

----------
Tested System: BAF3-EML4-ALK stable cell line (Homo sapiens)
Construct: fused on or other part: Q9HC35 (Echinoderm microtubule-associated protein-like 4)
Protocol: BAF3-EML4-ALK cell assay (MTT cell proliferation)
Format: cell-based
Condition Set: 72 hours, read-out: BAF3-EML4-ALK Cell (IC50 grading)
Description: BAF3-EML4-ALK Cell Assay: […]

{"columns": ["Compound", "GI50"],
 "data": [
  ["CCN1CCC(n2cc(-c3cnc(N)c(OC(C)c4c(Cl)ccc(F)c4Cl)c3)cn2)CC1 (stereo not shown)", "≤ 100 nM"],
  ["CC(=O)Nc1ncc(-c2cnn(C3CCNCC3)c2)cc1O[C@@H](C)c1c(Cl)ccc(F)c1Cl", "≤ 1000 nM"],
  ["CC(=O)Nc1ncc(-c2cnn(C3CCNCC3)c2)cc1O[C@H](C)c1c(Cl)ccc(F)c1Cl", "≤ 100 nM"],
  ["[2H]C([2H])([2H])C([2H])([2H])N1CCC(n2cc(-c3cnc(N)c(O[C@H](C)c4c(Cl)ccc(F)c4Cl)c3)cn2)CC1", "≤ 100 nM"],
  ["CCN1CCC(n2cc(-c3cnc(NC(C)=O)c(OC(C)c4c(Cl)ccc(F)c4Cl)c3)cn2)CC1 (stereo not shown)", "100 to 1000 nM"],
  ["CC(=O)Nc1ncc(-c2cnn(C3CCNCC3)c2)cc1OC(C)c1c(Cl)ccc(F)c1Cl (stereo not shown)", "≤ 100 nM"],
  ["C[C@@H](Oc1cc(-c2cnn(C3CCN(C)CC3)c2)cnc1N)c1c(Cl)ccc(F)c1Cl", "≤ 100 nM"]
]}

----------
# Cmax listing for each entry below
Protocol: PK (pharmacokinetic) study in rat, cassette dosing
Assay type: in vivo
Condition Set: male, Wistar, plasma, IV cassette 1 mg/kg

{"columns": ["Smiles Code", "Cmax"],
 "data": [
  ["[2H]C([2H])([2H])C([2H])([2H])N1CCC(n2cc(-c3cnc(N)c(O[C@H](C)c4c(Cl)ccc(F)c4Cl)c3)cn2)CC1", "259 ng/mL"],
  ["CCN1CCC(n2cc(-c3cnc(N)c(O[C@H](C)c4c(Cl)ccc(F)c4Cl)c3)cn2)CC1", "317 ng/mL"]
]}

----------
Tested System: BAF3-EML4-ALK stable cell line (Homo sapiens, UniProt Q9UM73)
Construct: fused on or other part: Q9HC35 (Echinoderm microtubule-associated protein-like 4)
Sequence (Q9UM73 whole entry, change not shown, the tested form may be a part): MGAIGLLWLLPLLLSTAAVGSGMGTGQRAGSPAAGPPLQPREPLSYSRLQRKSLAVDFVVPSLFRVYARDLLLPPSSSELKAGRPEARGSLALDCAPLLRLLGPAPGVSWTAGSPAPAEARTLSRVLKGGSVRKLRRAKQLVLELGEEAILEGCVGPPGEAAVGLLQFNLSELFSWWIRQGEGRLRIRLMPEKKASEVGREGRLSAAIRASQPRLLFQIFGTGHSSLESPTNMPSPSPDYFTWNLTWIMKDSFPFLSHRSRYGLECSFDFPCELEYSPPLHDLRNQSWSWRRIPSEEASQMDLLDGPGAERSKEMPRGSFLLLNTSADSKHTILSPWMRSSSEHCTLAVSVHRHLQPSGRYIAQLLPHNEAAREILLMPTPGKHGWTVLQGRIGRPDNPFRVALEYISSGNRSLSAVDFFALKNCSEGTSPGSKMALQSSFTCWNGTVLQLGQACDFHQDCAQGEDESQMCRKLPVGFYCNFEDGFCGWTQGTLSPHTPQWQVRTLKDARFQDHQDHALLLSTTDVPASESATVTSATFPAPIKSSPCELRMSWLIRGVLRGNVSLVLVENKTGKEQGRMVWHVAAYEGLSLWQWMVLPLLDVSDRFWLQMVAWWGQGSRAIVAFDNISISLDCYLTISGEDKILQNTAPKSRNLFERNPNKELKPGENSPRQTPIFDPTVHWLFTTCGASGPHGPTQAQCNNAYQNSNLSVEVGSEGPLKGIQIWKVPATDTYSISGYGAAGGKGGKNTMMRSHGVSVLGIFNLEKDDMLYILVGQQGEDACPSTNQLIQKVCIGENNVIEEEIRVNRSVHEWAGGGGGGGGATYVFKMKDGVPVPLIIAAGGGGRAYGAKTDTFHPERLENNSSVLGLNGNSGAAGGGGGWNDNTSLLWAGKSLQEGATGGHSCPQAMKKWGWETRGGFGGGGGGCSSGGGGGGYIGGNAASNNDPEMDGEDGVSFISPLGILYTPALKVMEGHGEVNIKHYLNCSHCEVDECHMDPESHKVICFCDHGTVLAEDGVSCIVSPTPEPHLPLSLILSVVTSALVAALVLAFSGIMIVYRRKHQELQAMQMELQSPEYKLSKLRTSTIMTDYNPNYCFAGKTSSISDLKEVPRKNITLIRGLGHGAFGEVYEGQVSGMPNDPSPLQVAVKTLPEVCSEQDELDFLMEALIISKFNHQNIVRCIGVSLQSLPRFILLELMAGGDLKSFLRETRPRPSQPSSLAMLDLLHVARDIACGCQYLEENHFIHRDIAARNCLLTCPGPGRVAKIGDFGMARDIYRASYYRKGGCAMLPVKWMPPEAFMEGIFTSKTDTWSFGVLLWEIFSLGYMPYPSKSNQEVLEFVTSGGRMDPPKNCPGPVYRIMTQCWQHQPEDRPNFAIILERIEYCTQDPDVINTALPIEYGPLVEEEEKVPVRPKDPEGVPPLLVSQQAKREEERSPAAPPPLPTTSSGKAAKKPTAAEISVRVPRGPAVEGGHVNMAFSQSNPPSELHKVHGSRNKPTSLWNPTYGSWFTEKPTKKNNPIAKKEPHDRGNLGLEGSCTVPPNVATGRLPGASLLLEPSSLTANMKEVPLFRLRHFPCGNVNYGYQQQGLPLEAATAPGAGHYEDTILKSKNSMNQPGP
Protocol: BAF3-EML4-ALK cell assay (MTT cell proliferation)
Format: cell-based
Condition Set: 72 hours, read-out: BAF3-EML4-ALK Cell (IC50 grading)
# GI50 listing for each entry below
Assay Endpoint: GI50

{"columns": ["Compound", "Tested System", "Assay Endpoint", "Reported Measurement"],
 "data": [
  ["CCN1CCC(n2cc(-c3cnc(N)c(O[C@@H](C)c4c(Cl)ccc(F)c4Cl)c3)cn2)CC1", "BAF3-EML4-ALK stable cell line (Homo sapiens, UniProt Q9UM73)", "GI50", "≤ 1 µM"],
  ["CCN1CCC(n2cc(-c3cnc(N)c(O[C@H](C)c4c(Cl)ccc(F)c4Cl)c3)cn2)CC1", "BAF3-EML4-ALK stable cell line (Homo sapiens, UniProt Q9UM73)", "GI50", "≤ 0.1 µM"],
  ["CCNc1ncc(-c2cnn(C3CCNCC3)c2)cc1OC(C)c1c(Cl)ccc(F)c1Cl (centres unmarked)", "BAF3-EML4-ALK stable cell line (Homo sapiens, UniProt Q9UM73)", "GI50", "≤ 1 µM"],
  ["[2H]C([2H])([2H])N1CCC(n2cc(-c3cnc(N)c(O[C@@H](C)c4c(Cl)ccc(F)c4Cl)c3)cn2)CC1", "BAF3-EML4-ALK stable cell line (Homo sapiens, UniProt Q9UM73)", "GI50", "≤ 1 µM"],
  ["C[C@H](Oc1cc(-c2cnn(C3CCN(C)CC3)c2)cnc1N)c1c(Cl)ccc(F)c1Cl", "BAF3-EML4-ALK stable cell line (Homo sapiens, UniProt Q9UM73)", "GI50", "≤ 1 µM"],
  ["[2H]C([2H])([2H])C([2H])([2H])N1CCC(n2cc(-c3cnc(N)c(O[C@@H](C)c4c(Cl)ccc(F)c4Cl)c3)cn2)CC1", "BAF3-EML4-ALK stable cell line (Homo sapiens, UniProt Q9UM73)", "GI50", "≤ 1 µM"],
  ["CCCNc1ncc(-c2cnn(C3CCNCC3)c2)cc1OC(C)c1c(Cl)ccc(F)c1Cl (centres unmarked)", "BAF3-EML4-ALK stable cell line (Homo sapiens, UniProt Q9UM73)", "GI50", "≤ 1 µM"],
  ["[2H]C([2H])([2H])N1CCC(n2cc(-c3cnc(N)c(O[C@H](C)c4c(Cl)ccc(F)c4Cl)c3)cn2)CC1", "BAF3-EML4-ALK stable cell line (Homo sapiens, UniProt Q9UM73)", "GI50", "≤ 0.1 µM"]
]}
